Test system: Pseudomonas aeruginosa
Test: Antimicrobial activity against Pseudomonas aeruginosa PAO1 ARC545 by CLSI dilution method
Format: functional
valueKind: MIC (µM)
Write the answer as a number in µM, unit excluded.

smilesdata=O=C(NO)C1(CSc2ccc(C#Cc3ccc(CN4CCOCC4)cc3)cc2)CCOCC1 resultvalue=25
smilesdata=COc1ccc(CNCc2ccc(C#Cc3ccc(OCC4(C(=O)NO)CCOCC4)cc3)cc2)cc1 resultvalue=100
smilesdata=CC(=O)N1CCN(Cc2ccc(C#Cc3ccc(OCC4(C(=O)NO)CCOCC4)cc3)cc2)CC1 resultvalue=50

Note: attention shifts to another entry.
Exam item: Need MIC, item "O=C(NO)C1(COc2ccc(OCc3ccccc3)cc2)CCOCC1"
Marked response: 200

====

Reported values of MIC for individual entries
Tested on: Escherichia coli
Assay: Antimicrobial activity against TolC-deficient Escherichia coli ARC524 W3110 harboring mutant by CLSI dilution method
Type: functional
Dear colleague, please return just the value in µM, with no unit written.

Exam item: Would you kindly share the measured MIC for "O=C(NO)C1(COc2ccc(C#CC#Cc3ccccc3)cc2)CCOCC1" ?
Marked response: 50

Exam item: I'd like to know its MIC. The molecule in question is "O=C(NO)C1(COc2ccc(OCc3ccccc3)cc2)CCOCC1"
Marked response: 200

Exam item: Which MIC value belongs to O=C(NO)C1(COc2ccc(C#Cc3ccc(CN4CCOCC4)cc3)cc2)CCC(O)CC1 (configuration not stated) ?
Marked response: 25

Exam item: // returns reported MIC for input "O=C(NO)C1(COc2ccc(C#Cc3ccc(CN4CCN(CCN5CCOCC5)CC4)cc3)cc2)CCOCC1"
Marked response: 1.56

Exam item: // lookup MIC for CN(C)CC1CN(Cc2ccc(C#Cc3ccc(OCC4(C(=O)NO)CCOCC4)cc3)cc2)CCO1 (configuration not stated)
Marked response: 6.25

====

Test system: Pseudomonas aeruginosa
Experiment: Antimicrobial activity against Pseudomonas aeruginosa PAO1 ARC545 by CLSI dilution method
Type: functional
Listed next: entries and their corresponding MIC.

Exam item: Returns the measured MIC for the input compound. Input: "O=C(NO)C1(COc2ccc(Oc3ccccc3)cc2)CCOCC1"
Marked response: > 200 µM

Exam item: For "O=C(CN1CCN(Cc2ccc(C#Cc3ccc(OCC4(C(=O)NO)CCOCC4)cc3)cc2)CC1)N1CCOCC1" , what is its reported MIC?
Marked response: > 200 µM

Exam item: Name the recorded MIC for O=C(NO)C1(COc2ccc(C#Cc3ccc(CN4CCOCC4)cc3)cc2)CCC(O)CC1 (stereo not drawn) .
Marked response: > 200 µM

====

Molecular target: UDP-3-O-acyl-N-acetylglucosamine deacetylase (Pseudomonas aeruginosa (strain ATCC 15692 / PAO1 / 1C / PRS 101 / LMG12228), UniProt P47205)
Sequence (P47205 whole entry): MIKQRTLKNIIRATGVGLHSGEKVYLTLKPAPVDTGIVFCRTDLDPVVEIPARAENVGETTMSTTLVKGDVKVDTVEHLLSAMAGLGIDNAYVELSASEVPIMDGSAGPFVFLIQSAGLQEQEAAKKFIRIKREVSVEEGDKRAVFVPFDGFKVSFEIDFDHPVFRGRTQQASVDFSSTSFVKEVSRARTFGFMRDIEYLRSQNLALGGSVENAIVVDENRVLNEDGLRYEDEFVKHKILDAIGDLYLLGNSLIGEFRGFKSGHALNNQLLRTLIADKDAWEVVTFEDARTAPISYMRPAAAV
Test: Inhibition of Pseudomonas aeruginosa LpxC using UDP-3-O-(R-3-hydroxydecanoyl)-N-acetylglucosamine as substrate preincubated for 20 mins before substrate addition by LC/MS/MS analysis
pIC50: −log10 of the molar value.
Decision: pIC50 >= 8 yields rule met, all other cases yield rule not met.

Reference set (5 entries):
compound=O=C(NO)C1(COc2ccc(C#CC#Cc3ccccc3)cc2)CCOCC1 categorylabel="rule not met"
compound=O=C(NO)C1(CSc2ccc(C#Cc3ccc(CN4CCOCC4)cc3)cc2)CCOCC1 categorylabel="rule met"
compound=O=C(NO)C1(COc2ccc(C#Cc3ccc(CN4CCN(CCn5ccnc5)CC4)cc3)cc2)CCOCC1 categorylabel="rule met"
compound="CN(C)CC1CN(Cc2ccc(C#Cc3ccc(OCC4(C(=O)NO)CCOCC4)cc3)cc2)CCO1 (stereo not drawn)" categorylabel="rule met"
compound=O=C(NO)C1(COc2ccc(C#Cc3ccc(CN4CCOCC4)cc3)cc2)CCOCC1 categorylabel="rule met"

Exam item: Has "CC(=O)N1CCN(Cc2ccc(C#Cc3ccc(OCC4(C(=O)NO)CCOCC4)cc3)cc2)CC1" a recorded pIC50 greater than or equal to 8?
Marked response: rule met

Exam item: Hello, I need to know if O=C(NO)C1(C[S+]([O-])c2ccc(C#Cc3ccc(CN4CCOCC4)cc3)cc2)CCOCC1 (racemic) has measured pIC50 not below 8. Thanks!
Marked response: rule met

Exam item: Quick check, pIC50 >= 8? O=C(NO)C1(COc2ccc(C#Cc3ccc(CN4CCOCC4)cc3)cc2)CCC(O)CC1 (stereo not drawn)
Marked response: rule not met

Exam item: Tell me whether pIC50 is at least 8 here: "C[C@@H]1CN(Cc2ccc(C#Cc3ccc(OCC4(C(=O)NO)CCOCC4)cc3)cc2)C[C@H](C)O1"
Marked response: rule met

Exam item: Confirm if pIC50 reported for the compound "O=C(CN1CCN(Cc2ccc(C#Cc3ccc(OCC4(C(=O)NO)CCOCC4)cc3)cc2)CC1)N1CCOCC1" is 8 or above.
Marked response: rule met

Exam item: Hi, just wondering whether "CC(C)(O)C#CC#Cc1ccc(OCC2(C(=O)NO)CCOCC2)cc1" shows pIC50 of 8 or higher.
Marked response: rule not met

Exam item: # check: pIC50 of "O=C(NO)C1(COc2ccc(C#Cc3ccc(CN4CCN(CCN5CCOCC5)CC4)cc3)cc2)CCOCC1" is greater than or equal to 8
Marked response: rule met

====

Tested on: Pseudomonas aeruginosa
Assay: Antimicrobial activity against Pseudomonas aeruginosa PAO1 ARC545 by CLSI dilution method
Type: functional
MIC for assorted molecules

molecule=C[C@@H]1CN(Cc2ccc(C#Cc3ccc(OCC4(C(=O)NO)CCOCC4)cc3)cc2)C[C@H](C)O1 resultvalue="> 200 µM"
molecule="COC1CCC(COc2ccc(C#Cc3ccc(CN4CCOCC4)cc3)cc2)(C(=O)NO)CC1 (stereo not drawn)" resultvalue="> 200 µM"

With those in mind, consider the next molecule.
Exam item: Need MIC of "CC(C)(O)C#CC#Cc1ccc(OCC2(C(=O)NO)CCOCC2)cc1" , thanks.
Marked response: > 200 µM

====

Biological target: UDP-3-O-acyl-N-acetylglucosamine deacetylase (Pseudomonas aeruginosa (strain ATCC 15692 / PAO1 / 1C / PRS 101 / LMG12228), UniProt P47205)
Assay: Inhibition of Pseudomonas aeruginosa LpxC using UDP-3-O-(R-3-hydroxydecanoyl)-N-acetylglucosamine as substrate preincubated for 20 mins before substrate addition by LC/MS/MS analysis
Listed next: entries and their corresponding pIC50.
# pIC50 = -log10(concentration in molar units)

Some entries whose results are on file:
compound=CN1CCN(Cc2ccc(C#Cc3ccc(OCC4(C(=O)NO)CCOCC4)cc3)cc2)CC1 valuekind=pIC50 resultvalue=8.21
compound="COC1CCC(COc2ccc(C#Cc3ccc(CN4CCOCC4)cc3)cc2)(C(=O)NO)CC1 (stereo unspecified)" valuekind=pIC50 resultvalue=8.07
compound=O=C(NO)C1(CSc2ccc(Oc3ccc(Cl)cc3)cc2)CCOCC1 valuekind=pIC50 resultvalue=8.13
compound=COc1ccc(CNCc2ccc(C#Cc3ccc(OCC4(C(=O)NO)CCOCC4)cc3)cc2)cc1 valuekind=pIC50 resultvalue=8.00
compound=O=C(NO)C1(COc2ccc(OCc3ccccc3)cc2)CCOCC1 valuekind=pIC50 resultvalue=7.85

As a next step, examine the compound that follows.
Exam item: Fill in: pIC50 of "O=C(NO)C1(COc2ccc(-c3ccccc3)cc2)CCOCC1" is ___
Marked response: 8.06
